assay: BAK exposure in rat liver and kidney 24 h after dosing; format: in vivo, Sprague–Dawley rats; details: Sprague-Dawley, liver, po, 200 mg/kg, 24 h after single oral dose, read-out: Exposure of BAK, Liver, single rats
property.measured: concentration at 24 h (ng/g)
Numbers only, in ng/g.

Fill in: concentration at 24 h of C=C[C@@](C)(/C=C/c1ccc(O)cc1)CCC=C(C)C [BAK, Bakuchiol] is ___ 531

* * *

Assay: HK-2 cell viability, MTT assay, with or without co-cultured HLMs
Format: cell-based, human
Conditions: human, HK-2 cells co-cultured with HLMs (0.16 g/L), BAK 60 µM, with HLMs 0.16 g/L, 4 h, mean; read-out: HK-2 Cell viability (%)
Procedure: HK-2 cells obtained from Peking Union Medical College were maintained in D/F12 medium containing 10% fetal bovine serum, 2 mM glutamine and 1 × 10^5 U/L penicillin and streptomycin at 37 °C in a 5% CO2 atmosphere. […] The samples containing HLMs were prepared in an ice bath, and three replicates were tested for each dose. […] Subsequently, 150 µL of 4% isopropanol was added to cells for 15 min at 37 °C, and the absorbance at 570 nm was then read by a microplate reader (Multiskan MK3, Thermo, USA). […]
property.measured: viability at 4 h, 60 µM (%)
Numbers only, in %.

Fill in: viability at 4 h, 60 µM of C=C[C@@](C)(/C=C/c1ccc(O)cc1)CCC=C(C)C is ___ 101
